Header: pIC50 / UniProtKB P08236 / multiple publications
Target: UniProtKB P08236
Sequence (P08236 whole entry): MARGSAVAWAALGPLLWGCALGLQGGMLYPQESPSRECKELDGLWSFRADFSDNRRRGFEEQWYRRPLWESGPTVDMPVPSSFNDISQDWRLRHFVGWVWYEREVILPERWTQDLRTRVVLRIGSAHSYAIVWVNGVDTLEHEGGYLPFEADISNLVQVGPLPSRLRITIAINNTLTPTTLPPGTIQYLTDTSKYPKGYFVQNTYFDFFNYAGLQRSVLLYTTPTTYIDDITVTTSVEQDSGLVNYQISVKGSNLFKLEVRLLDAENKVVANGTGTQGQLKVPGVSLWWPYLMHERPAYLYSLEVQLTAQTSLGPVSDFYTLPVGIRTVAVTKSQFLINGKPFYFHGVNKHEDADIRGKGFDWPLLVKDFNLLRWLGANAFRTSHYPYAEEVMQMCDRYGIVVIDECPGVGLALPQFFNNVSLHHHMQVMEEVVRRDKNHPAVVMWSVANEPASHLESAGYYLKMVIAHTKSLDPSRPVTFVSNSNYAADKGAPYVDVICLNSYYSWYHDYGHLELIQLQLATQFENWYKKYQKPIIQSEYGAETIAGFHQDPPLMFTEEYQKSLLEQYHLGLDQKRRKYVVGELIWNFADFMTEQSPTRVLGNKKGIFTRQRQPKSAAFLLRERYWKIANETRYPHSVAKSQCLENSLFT
pIC50: −log10 of the molar value.
MEASURED PROPERTY: pIC50

{"GIVEN SMILES": "Cc1ccc(C(c2c[nH]c3ccc(C(=O)N/N=C/c4ccccc4)cc23)c2c[nH]c3ccc(C(=O)N/N=C/c4ccccc4)cc23)cc1", "STUDY SYSTEM": "UniProtKB P08236", "pIC50": 4.37}
{"GIVEN SMILES": "Cc1ccc(-c2nc3ccccc3c(=O)[nH]2)cc1", "STUDY SYSTEM": "UniProtKB P08236", "pIC50": 3.76}
{"GIVEN SMILES": "O=c1[nH]c(-c2cccc(O)c2)nc2ccccc12", "STUDY SYSTEM": "UniProtKB P08236", "pIC50": 3.70}
{"GIVEN SMILES": "Cc1ccc(C(c2c[nH]c3ccc(C(=O)N/N=C/c4ccccc4[N+](=O)[O-])cc23)c2c[nH]c3ccc(C(=O)N/N=C/c4ccccc4[N+](=O)[O-])cc23)cc1", "STUDY SYSTEM": "UniProtKB P08236", "pIC50": 4.31}
{"GIVEN SMILES": "CC(=O)c1ccc(Nc2cc(C)nc3ccccc23)cc1", "STUDY SYSTEM": "UniProtKB P08236", "pIC50": 5.40}

1 = Cc1ccc(C(c2c[nH]c3ccc(C(=O)N/N=C/C=C/c4ccccc4)cc23)c2c[nH]c3ccc(C(=O)N/N=C/C=C/c4ccccc4)cc23)cc1
2 = COc1cc(-c2nc3ccccc3c(=O)[nH]2)cc(OC)c1OC
3 = Cc1ccc(C(c2c[nH]c3ccc(C(=O)N/N=C/c4cccc(C)c4)cc23)c2c[nH]c3ccc(C(=O)N/N=C/c4cccc(C)c4)cc23)cc1
4 = Cc1ccc(C(c2c[nH]c3ccc(C(=O)N/N=C/c4cc(O)ccc4O)cc23)c2c[nH]c3ccc(C(=O)N/N=C/c4cc(O)ccc4O)cc23)cc1
5 = Cc1ccc(C(c2c[nH]c3ccc(C(=O)N/N=C/c4ccc(O)c(O)c4)cc23)c2c[nH]c3ccc(C(=O)N/N=C/c4ccc(O)c(O)c4)cc23)cc1
Problem: Please produce an ascending ranking of these compounds based on pIC50. In plain terms: list the labels in the order you were asked to.
Result: 2, 3, 1, 4, 5
